- targetSystem: HLA-A*02:01 (Homo sapiens, UniProt P04439, D140Y/D185E/D98H/E176V/E277Q/G131W/G231S/I119V/I121R/I166T/I218V/L300P/L318F/N151K/N90K/P208A/P217A/Q86G/Q94H/R138H/R169H/T345S)
- assayNotes: MHC binding assay (UV-ligand exchange, beta2m ELISA)
- statedConditions: binding to HLA-A*02:01, β2m ELISA
reportedProperty: Peptide exchange (MHC class I binding score, peptide exchange yield)

Would you please look over these solved cases?
>  <substance>
80 (VLTGQVHEL; listed as Homo sapiens) [compound 80]

>  <measValue>
+++ (≧50 = +++)

$$$$
>  <substance>
229 (YLYELEHAL; listed as Homo sapiens) [compound 229]

>  <measValue>
++ (≧20% = ++)

$$$$
>  <substance>
226 (SLAGNLQEL; listed as Homo sapiens) [compound 226]

>  <measValue>
+++ (≧50 = +++)

$$$$
>  <substance>
34 (TLNTLDINL; listed as Homo sapiens) [compound 34]

>  <measValue>
+++ (≧50 = +++)

$$$$
>  <substance>
16 (SLADLSLLL; listed as Homo sapiens) [compound 16]

>  <measValue>
+++ (≧50 = +++)

$$$$

What value of measured Peptide exchange (MHC class I binding score, peptide exchange yield) is listed for 47 (GLNGFNVLL; listed as Homo sapiens) [compound 47] ?
+++ (≧50 = +++)

State the recorded Peptide exchange (MHC class I binding score, peptide exchange yield) for this entry: 264 (TLHDQVHLL; listed as Homo sapiens) [compound 264]
++ (≧20% = ++)

Which value of Peptide exchange (MHC class I binding score, peptide exchange yield) has been reported for 58 (HLLGEGAFAQV; listed as Homo sapiens) [compound 58] in the records?
+++ (≧50 = +++)

Requested field: Peptide exchange (MHC class I binding score, peptide exchange yield). Item: 125 (AALEVLAEV; listed as Homo sapiens) [compound 125]
+++ (≧50 = +++)

// lookup Peptide exchange (MHC class I binding score, peptide exchange yield) for 211 (LLTTVLINA; listed as Homo sapiens) [compound 211]
+++ (≧50 = +++)

Peptide exchange (MHC class I binding score, peptide exchange yield) lookup needed for 214 (ALFETLIQL; listed as Homo sapiens) [compound 214] , thanks.
+++ (≧50 = +++)

Give the measured Peptide exchange (MHC class I binding score, peptide exchange yield) of 248 (VLMQDSRLYL; listed as Homo sapiens) [compound 248] .
+++ (≧50 = +++)

Would you kindly share the measured Peptide exchange (MHC class I binding score, peptide exchange yield) for 30 (IITEVITRL; listed as Homo sapiens) [compound 30] ?
+++ (≧50 = +++)

---

- targetSystem: HLA-A*02:01 (Homo sapiens, UniProt P04439, D140Y/D185E/D98H/E176V/E277Q/G131W/G231S/I119V/I121R/I166T/I218V/L300P/L318F/N151K/N90K/P208A/P217A/Q86G/Q94H/R138H/R169H/T345S)
- assayNotes: MHC binding assay (UV-ligand exchange, beta2m ELISA)
- statedConditions: binding to HLA-A*02:01, β2m ELISA
reportedProperty: Peptide exchange (MHC class I binding score, peptide exchange yield)

Examples with answers:
>  <substance>
158 (YLDPLWHQL; listed as Homo sapiens) [compound 158]

>  <measValue>
+++ (≧50 = +++)

$$$$
>  <substance>
147 (GLLSALENV; listed as Homo sapiens) [compound 147]

>  <measValue>
+++ (≧50 = +++)

$$$$
>  <substance>
266 (FLLDKPQDL; listed as Homo sapiens) [compound 266]

>  <measValue>
++ (≧20% = ++)

$$$$
>  <substance>
269 (GLLDCPIFL; listed as Homo sapiens) [compound 269]

>  <measValue>
++++ (≧75% = ++++)

$$$$
>  <substance>
253 (KLLAVIHEL; listed as Homo sapiens) [compound 253]

>  <measValue>
+++ (≧50 = +++)

$$$$
>  <substance>
64 (SLYAGSNNQV; listed as Homo sapiens) [compound 64]

>  <measValue>
++ (≧20% = ++)

$$$$
>  <substance>
96 (ALDTTRHEL; listed as Homo sapiens) [compound 96]

>  <measValue>
++ (≧20% = ++)

$$$$
>  <substance>
166 (LLGDSSFFL; listed as Homo sapiens) [compound 166]

>  <measValue>
+++ (≧50 = +++)

$$$$

I would be grateful if you could share the reported Peptide exchange (MHC class I binding score, peptide exchange yield) for 45 (FLPVSVVYV; listed as Homo sapiens) [compound 45] .
+++ (≧50 = +++)

Would you kindly share the measured Peptide exchange (MHC class I binding score, peptide exchange yield) for 95 (KLIDEDEPLFL; listed as Homo sapiens) [compound 95] ?
+++ (≧50 = +++)

Dear colleague, I am looking for the recorded Peptide exchange (MHC class I binding score, peptide exchange yield) of the following substance: 242 (KLQEEIPVL; listed as Homo sapiens) [compound 242]
+++ (≧50 = +++)
